Each recorded value in this set is attributed to patent US6720423B2.

Quick reference: Ki of the listed items.
Target Desc: RARβ (Homo sapiens, UniProt P10826)
Sequence (P10826 1-455): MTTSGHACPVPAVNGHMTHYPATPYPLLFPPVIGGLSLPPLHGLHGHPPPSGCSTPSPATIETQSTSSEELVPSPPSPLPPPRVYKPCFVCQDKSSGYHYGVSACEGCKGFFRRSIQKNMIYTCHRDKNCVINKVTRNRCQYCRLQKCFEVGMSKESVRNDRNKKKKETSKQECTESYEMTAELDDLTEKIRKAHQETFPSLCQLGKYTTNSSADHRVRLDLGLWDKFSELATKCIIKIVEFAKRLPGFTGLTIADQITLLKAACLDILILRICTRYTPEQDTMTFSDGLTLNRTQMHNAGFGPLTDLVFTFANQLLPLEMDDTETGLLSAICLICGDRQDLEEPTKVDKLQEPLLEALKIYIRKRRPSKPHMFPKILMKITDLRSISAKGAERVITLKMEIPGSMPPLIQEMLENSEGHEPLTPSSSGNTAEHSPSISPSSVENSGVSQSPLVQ
Assay Overview: ligand binding assay, RARβ
Conditions Used: second entry of cell, read-out: RAR Bind. Ki (nM) β
Property Label: Ki (nM)

CCCCCCCc1ccccc1-c1cc([C@@]2(C)C[C@H]2/C=C/C(C)=C/C(=O)O)cc2c1OCC2(C)C    3740
CCCCC(=O)CCc1cc([C@@]2(C)C[C@H]2/C=C/C(C)=C/C(=O)O)cc2c1OCC2(C)C    22000
CC(/C=C/[C@@H]1C[C@]1(C)c1cc(C(C)C)c2c(c1)C(C)(C)CO2)=C\C(=O)O    41000

====

Target Desc: RXRβ (UniProt P28704)
Assay Overview: ligand binding assay, RXRβ
Design: other: RXRβ; last entry of cell
Conditions Used: last entry of cell, read-out: RXR Bind Ki (nM) β
Label Yes when Ki is strictly below 20 nM; at or above that, label No.

CCCCC(O)CCc1cc([C@@]2(C)C[C@H]2/C=C/C(C)=C/C(=O)O)cc2c1OCC2(C)C (stereo partly drawn) [Compound 38]    No
CC(/C=C/[C@@H]1C[C@]1(C)c1cc(C)c2c(c1)C(C)(C)CO2)=C\C(=O)O [Compound 4]    No
CC(/C=C/[C@@H]1C[C@]1(C)c1ccc2c(c1)C(C)(C)CO2)=C\C(=O)O [Compound 2]    No
CC(/C=C/[C@@H]1C[C@]1(C)c1cc(-c2ccccc2)c2c(c1)C(C)(C)CO2)=C\C(=O)O [Compound 22]    Yes
CC(/C=C/[C@@H]1C[C@]1(C)c1cc(C(C)C)c2c(c1)C(C)(C)CO2)=C\C(=O)O [Compound 8]    Yes
CC(/C=C/[C@@H]1C[C@]1(C)c1cc(Br)c2c(c1)C(C)(C)CO2)=C\C(=O)O [Compound 20]    No
CCCCCCCc1ccccc1-c1cc([C@@]2(C)C[C@H]2/C=C/C(C)=C/C(=O)O)cc2c1OCC2(C)C [Compound 28]    No
CC(/C=C/[C@@H]1C[C@]1(C)c1cc(-c2c(C)cccc2C)c2c(c1)C(C)(C)CO2)=C\C(=O)O [Compound 24]    Yes
CC(/C=C/[C@@H]1C[C@]1(C)c1cc(CC2CCCCC2)c2c(c1)C(C)(C)CO2)=C\C(=O)O [Compound 16]    Yes
CC(/C=C/[C@@H]1C[C@]1(C)c1cc(-c2ccc(F)cc2)c2c(c1)C(C)(C)CO2)=C\C(=O)O [Compound 34]    Yes
CC(/C=C/[C@@H]1C[C@]1(C)c1cc(C(C)(C)C)c2c(c1)C(C)(C)CO2)=C\C(=O)O [Compound 10]    Yes
COc1ccc(-c2cc([C@@]3(C)C[C@H]3/C=C/C(C)=C/C(=O)O)cc3c2OCC3(C)C)cc1 [Compound 32]    No
CCc1cc([C@@]2(C)C[C@H]2/C=C/C(C)=C/C(=O)O)cc2c1OCC2(C)C [Compound 6]    Yes
CC(/C=C/[C@@H]1C[C@]1(C)c1cc(Cc2ccccc2)c2c(c1)C(C)(C)CO2)=C\C(=O)O [Compound 14]    Yes
CCCCC(=O)CCc1cc([C@@]2(C)C[C@H]2/C=C/C(C)=C/C(=O)O)cc2c1OCC2(C)C [Compound 40]    No

====

Target Desc: RARβ (Homo sapiens)
Assay Overview: ligand binding assay, RARβ
Conditions Used: second entry of cell, read-out: RAR Bind. Ki (nM) β
Property Label: Ki (nM)

CC(/C=C/[C@@H]1C[C@]1(C)c1cc(CC2CCCCC2)c2c(c1)C(C)(C)CO2)=C\C(=O)O    9290
COc1ccc(-c2cc([C@@]3(C)C[C@H]3/C=C/C(C)=C/C(=O)O)cc3c2OCC3(C)C)cc1    15000
CC(/C=C/[C@@H]1C[C@]1(C)c1cc(-c2ccc(F)cc2)c2c(c1)C(C)(C)CO2)=C\C(=O)O    8750

====

Target Desc: RXRγ (UniProt P28705)
Sequence (P28705 1-463): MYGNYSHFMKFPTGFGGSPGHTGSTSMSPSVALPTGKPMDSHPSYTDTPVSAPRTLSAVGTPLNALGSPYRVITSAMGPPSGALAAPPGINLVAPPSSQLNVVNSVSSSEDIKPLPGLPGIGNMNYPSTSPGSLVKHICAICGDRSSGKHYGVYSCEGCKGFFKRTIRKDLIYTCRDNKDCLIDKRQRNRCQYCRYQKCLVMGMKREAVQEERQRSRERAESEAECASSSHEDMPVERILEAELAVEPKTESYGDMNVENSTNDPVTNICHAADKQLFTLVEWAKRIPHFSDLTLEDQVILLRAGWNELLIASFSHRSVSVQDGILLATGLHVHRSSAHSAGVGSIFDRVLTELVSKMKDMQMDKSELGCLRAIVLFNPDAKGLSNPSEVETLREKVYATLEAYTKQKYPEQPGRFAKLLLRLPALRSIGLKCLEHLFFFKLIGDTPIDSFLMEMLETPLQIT
Assay Overview: ligand binding assay, RXRγ
Parameters: other: RXRγ; last entry of cell
Conditions Used: last entry of cell, read-out: RXR Bind Ki (nM) γ
Source text: A holoreceptor transactivation assay and a ligand binding assay which measure the antagonist/agonist like activity of the compounds of the invention, or their ability to bind to the several retinoid receptor subtypes, respectively, are described in published PCT Application No. WO WO93/11755 (particularly on pages 30-33 and 37-41) published on Jun. 24, 1993, the specification of which is also incorporated herein by reference. […]
Property Label: Ki (nM)

CC(/C=C/[C@@H]1C[C@]1(C)c1cc(C(C)C)c2c(c1)C(C)(C)CO2)=C\C(=O)O    8.6
CC(/C=C/[C@@H]1C[C@]1(C)c1cc(CC(C)(C)C)c2c(c1)C(C)(C)CO2)=C\C(=O)O    0.7
CC(/C=C/[C@@H]1C[C@]1(C)c1cc(-c2ccc(C(C)(C)C)cc2)c2c(c1)C(C)(C)CO2)=C\C(=O)O    69.9
CCCCCCc1cc([C@@]2(C)C[C@H]2/C=C/C(C)=C/C(=O)O)cc2c1OCC2(C)C    2
CC(/C=C/[C@@H]1C[C@@H]1c1ccc2c(c1)C(C)(C)CO2)=C\C(=O)O    602
CC(/C=C/[C@@H]1C[C@]1(C)c1cc(-c2ccc(F)cc2)c2c(c1)C(C)(C)CO2)=C\C(=O)O    1.5
CCCCC(=O)CCc1cc([C@@]2(C)C[C@H]2/C=C/C(C)=C/C(=O)O)cc2c1OCC2(C)C    70
CC(/C=C/[C@@H]1C[C@]1(C)c1cc(Br)c2c(c1)C(C)(C)CO2)=C\C(=O)O    40
CC(/C=C/[C@@H]1C[C@]1(C)c1cc(-c2c(C)cccc2C)c2c(c1)C(C)(C)CO2)=C\C(=O)O    4.8
CC(/C=C/[C@@H]1C[C@]1(C)c1ccc2c(c1)C(C)(C)CO2)=C\C(=O)O    35
COc1ccc(-c2cc([C@@]3(C)C[C@H]3/C=C/C(C)=C/C(=O)O)cc3c2OCC3(C)C)cc1    227
CCCCC(O)CCc1cc([C@@]2(C)C[C@H]2/C=C/C(C)=C/C(=O)O)cc2c1OCC2(C)C (stereo partly drawn)    283

====

Quick reference: EC50 of the listed items.
Target Desc: RXRα (Homo sapiens, UniProt P19793)
Construct: the only RXRα plasmid printed
Sequence (P19793 227-462 limits assumed): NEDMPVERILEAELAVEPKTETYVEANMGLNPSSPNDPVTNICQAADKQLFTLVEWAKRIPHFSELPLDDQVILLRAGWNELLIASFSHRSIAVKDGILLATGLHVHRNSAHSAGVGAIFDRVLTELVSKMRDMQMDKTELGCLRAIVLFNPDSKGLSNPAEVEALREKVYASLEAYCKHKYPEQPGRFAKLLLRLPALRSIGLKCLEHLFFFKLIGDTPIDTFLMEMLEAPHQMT
Assay Overview: receptor transactivation assay, RXRα
Assay type: cell-based
Conditions Used: first entry of cell, read-out: RXR Trans. EC50 (nM) α
Property Label: EC50 (nM)

CCCCCCc1cc([C@@]2(C)C[C@H]2/C=C/C(C)=C/C(=O)O)cc2c1OCC2(C)C    0.25
CC(/C=C/[C@@H]1C[C@]1(C)c1cc(-c2ccccc2)c2c(c1)C(C)(C)CO2)=C\C(=O)O    8.3
CC(/C=C/[C@@H]1C[C@]1(C)c1cc(-c2ccc(F)cc2)c2c(c1)C(C)(C)CO2)=C\C(=O)O    0.37
CC(/C=C/[C@@H]1C[C@]1(C)c1cc(CC2CCCCC2)c2c(c1)C(C)(C)CO2)=C\C(=O)O    0.215
CCCCCCCc1ccccc1-c1cc([C@@]2(C)C[C@H]2/C=C/C(C)=C/C(=O)O)cc2c1OCC2(C)C    594
CC(/C=C/[C@@H]1C[C@]1(C)c1cc(Cc2ccccc2)c2c(c1)C(C)(C)CO2)=C\C(=O)O    0.086
